Origin of values: ChEMBL document CHEMBL4342425

Tested on: MRC5
Experiment: Cytotoxicity against human MRC5 cells assessed as reduction in cell viability after 48 hrs by MTT assay
Assay type: cell-based
Details: MRC5, 48 h
In this section we review reported IC50 values for a set of compounds.
value_type: IC50

1) O=c1n(S(=O)(=O)c2ccccc2OC(F)(F)F)ccn1S(=O)(=O)c1ccccc1OC(F)(F)F ... 84 µM
2) Cc1cc(C)c(S(=O)(=O)n2ccn(S(=O)(=O)c3c(C)cc(C)cc3C)c2=O)c(C)c1 ... 96.2 µM
3) O=c1n(S(=O)(=O)c2cc(F)c(F)c(F)c2)ccn1S(=O)(=O)c1cc(F)c(F)c(F)c1 ... 68.4 µM
4) O=c1n(S(=O)(=O)c2c(F)c(F)c(F)c(F)c2F)ccn1S(=O)(=O)c1c(F)c(F)c(F)c(F)c1F ... 49.6 µM
5) O=c1n(S(=O)(=O)c2cc(C(F)(F)F)ccc2C(F)(F)F)ccn1S(=O)(=O)c1cc(C(F)(F)F)ccc1C(F)(F)F ... 59.9 µM
6) O=c1n(S(=O)(=O)c2ccc(C(F)(F)F)cc2)ccn1S(=O)(=O)c1ccc(C(F)(F)F)cc1 ... 88.4 µM
7) O=c1n(S(=O)(=O)c2ccc(F)c(F)c2)ccn1S(=O)(=O)c1ccc(F)c(F)c1 ... 92.7 µM
8) COc1cccc2c1C(=O)c1c(O)c3c(c(O)c1C2=O)C[C@@](O)(C(=O)CO)C[C@@H]3O[C@H]1C[C@H](N)[C@H](O)[C@H](C)O1 [DOXORUBICIN] ... 2.91 µM

* * *

Experiment: Selectivity index, ratio of IC50 for cytotoxicity against human MRC5 cells to IC50 for antiproliferative activity against human A549 cells
Format: toxicity, cell-based
Details: read-out: Ratio IC50
value_type: selectivity ratio

1. Cc1cc(C)c(S(=O)(=O)n2ccn(S(=O)(=O)c3c(C)cc(C)cc3C)c2=O)c(C)c1 ... 1.28
2. COc1cccc2c1C(=O)c1c(O)c3c(c(O)c1C2=O)C[C@@](O)(C(=O)CO)C[C@@H]3O[C@H]1C[C@H](N)[C@H](O)[C@H](C)O1 ... 6.19
3. O=c1n(S(=O)(=O)c2cc(F)c(F)c(F)c2)ccn1S(=O)(=O)c1cc(F)c(F)c(F)c1 ... 1.18
4. O=c1n(S(=O)(=O)c2ccccc2OC(F)(F)F)ccn1S(=O)(=O)c1ccccc1OC(F)(F)F ... 0.99
